// reported MIC for each item listed
# Test system: Stenotrophomonas maltophilia
# method notes: Antimicrobial activity against Stenotrophomonas maltophilia assessed as inhibition of growth incubated for 18 hrs by CLSI guidelines based assay
# Assay type: functional

>  <mol>
C[N+](C)(CCCCCOc1cc(OCCCCC[N+](C)(C)CCCc2ccccc2)cc(OCCCCC[N+](C)(C)CCCc2ccccc2)c1)CCCc1ccccc1.[Br-].[Br-].[Br-]

>  <MIC>
16 µg/mL

$$$$

Input CCCCCCCC[N+](C)(C)CCCCOc1cccc(OCCCC[N+](C)(C)CCCCCCCC)c1OCCCC[N+](C)(C)CCCCCCCC.[Br-].[Br-].[Br-] . Output MIC: 1 µg/mL

Field MIC (entry CCCCCCCCCC[N+](C)(C)CCCCOc1cc(OCCCC[N+](C)(C)CCCCCCCCCC)cc(OCCCC[N+](C)(C)CCCCCCCCCC)c1.[Br-].[Br-].[Br-] ) reads 4 µg/mL

Note to self: MIC recorded for CCCCCCCCCCCC[N+](C)(C)CCCOc1cc(OCCC[N+](C)(C)CCCCCCCCCCCC)cc(OCCC[N+](C)(C)CCCCCCCCCCCC)c1.[Br-].[Br-].[Br-] was 32 µg/mL
